Known IC50 of a selection of molecules
# TARGET DESC: human recombinant phosphodiesterase IVb (met-248) (Homo sapiens)
# Construct: fused on or other part: GST (glutathione transferase) fused on as a tag
# Sequence (Q07343 236-736): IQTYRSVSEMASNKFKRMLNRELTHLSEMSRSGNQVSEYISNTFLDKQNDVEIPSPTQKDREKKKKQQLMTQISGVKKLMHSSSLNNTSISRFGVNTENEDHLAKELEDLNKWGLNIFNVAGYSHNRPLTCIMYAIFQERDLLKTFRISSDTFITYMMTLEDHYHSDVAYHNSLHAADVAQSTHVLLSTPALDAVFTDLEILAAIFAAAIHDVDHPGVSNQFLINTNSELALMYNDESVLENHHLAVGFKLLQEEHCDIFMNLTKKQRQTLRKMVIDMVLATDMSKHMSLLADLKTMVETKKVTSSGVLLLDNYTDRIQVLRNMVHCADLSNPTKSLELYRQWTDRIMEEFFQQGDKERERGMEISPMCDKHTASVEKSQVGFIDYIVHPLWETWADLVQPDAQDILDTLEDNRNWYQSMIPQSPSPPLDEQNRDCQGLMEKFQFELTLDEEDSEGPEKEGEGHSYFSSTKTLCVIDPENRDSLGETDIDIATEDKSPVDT
# ASSAY EXPLANATION: SPA based PDE activity assay
# CONDITION: 100 nM cAMP, purified GST fusion protein of PDE IVb (met-248) from baculovirus/Sf-9
// units = nM; emit number, no label

MOLECULE	MEASURED ENDPOINT	TEST RESULT
O=C(NCC1CC1)c1cn(-c2cccc(-c3ccc(C4CC4C(=O)O)cc3)c2)c2ncccc2c1=O (centres unmarked)	IC50	0.2

query: Consider the molecule O=C(NCC(F)(F)F)c1cn(-c2cccc(-c3ccc([C@@H]4C[C@H]4C(=O)O)cc3)c2)c2ncccc2c1=O (single isomer, unassigned; (+)) [24-(+)-isomer] and give its measured IC50.
result: 0.4

query: Consider the molecule O=C(NC1CC1)c1cn(-c2cccc(-c3ccc([C@H]4C[C@H]4C(=O)O)cc3)c2)c2ncccc2c1=O (single isomer, unassigned; isomer 2) [8-(−)-isomer] and give its measured IC50.
result: 0.7

query: Consider the molecule O=C(NC1CC1)c1cn(-c2cccc(-c3ccc(C4CC4C(=O)O)c(Cl)c3)c2)c2ncccc2c1=O (centres unmarked) and give its measured IC50.
result: 0.1

---

# TARGET DESC: human recombinant phosphodiesterase IVb (met-248) (Homo sapiens)
# Construct: fused on or other part: GST (glutathione transferase) fused on as a tag
# ASSAY EXPLANATION: SPA based PDE activity assay
# CONDITION: 100 nM cAMP, purified GST fusion protein of PDE IVb (met-248) from baculovirus/Sf-9
MEASURED ENDPOINT: IC50 (nM)
// units = nM; emit number, no label

Some solved cases for reference:
COMPOUND	IC50 (nM)
O=C(NC1CC1)c1cn(-c2cccc(-c3ccc(C4CC4C(=O)O)c(F)c3)c2)c2ncccc2c1=O (single isomer, unassigned; isomer 2) [12-(−)-isomer]	0.4
O=C(NCC(F)(F)F)c1cn(-c2cccc(-c3ccc(C4CC4C(=O)O)c(F)c3)c2)c2ncccc2c1=O (single isomer, unassigned; (+)) [Example 29]	0.3
O=C(NC1CC1)c1cn(-c2cccc(-c3cccc(C4CC4C(=O)O)c3)c2)c2ncccc2c1=O (stereo not shown) [Example 2]	0.2

Could you now look at the following compound, please?
query: Consider the compound CC(C)(CC(=O)O)c1ccc(-c2cccc(-n3cc(C(=O)NC4CC4)c(=O)c4cccnc43)c2)cc1 [Example 5] and give its measured IC50.
result: 0.6
